# Tested on: spontaneously hypertensive rats
# method notes: Antihypertensive activity in spontaneously hypertensive rats, oral administration
# Type: in vivo
# experimental conditions: Rattus norvegicus, 30 mg/kg, read-out: % variation Heart rate
metric name: change in vivo at 30 mg/kg (%)

>  <compound>
COC(=O)C1=C(C)NC(C)=C(C(=O)OCC2COC(C(F)(F)F)(C(F)(F)F)O2)C1c1cccc([N+](=O)[O-])c1 (stereo not drawn) [Example 13]

>  <assayed system>
spontaneously hypertensive rats

>  <metric name>
change in vivo at 30 mg/kg

>  <result number>
25

$$$$
>  <compound>
COC(=O)C1=C(C)NC(C)=C(C(=O)OCC2COC(C)(c3ccccc3)O2)C1c1cccc([N+](=O)[O-])c1 (racemic) [Example 7]

>  <assayed system>
spontaneously hypertensive rats

>  <metric name>
change in vivo at 30 mg/kg

>  <result number>
36.4

$$$$
>  <compound>
COC(=O)C1=C(C)NC(C)=C(C(=O)OCC2COC3(CCCC3)O2)C1c1cccc([N+](=O)[O-])c1 (stereo not drawn) [Example 5]

>  <assayed system>
spontaneously hypertensive rats

>  <metric name>
change in vivo at 30 mg/kg

>  <result number>
19.3

$$$$
>  <compound>
COC(=O)C1=C(C)NC(C)=C(C(=O)OCC2(C)OCCO2)C1c1cccc([N+](=O)[O-])c1 (stereo not drawn) [CP 1, reference compound]

>  <assayed system>
spontaneously hypertensive rats

>  <metric name>
change in vivo at 30 mg/kg

>  <result number>
0

$$$$
>  <compound>
COC(=O)C1=C(C)NC(C)=C(C(=O)OCC2COC(C)(c3ccc(Cl)cc3Cl)O2)C1c1cccc([N+](=O)[O-])c1 (racemic) [Example 11]

>  <assayed system>
spontaneously hypertensive rats

>  <metric name>
change in vivo at 30 mg/kg

>  <result number>
34

$$$$
>  <compound>
COC(=O)C1=C(C)NC(C)=C(C(=O)OC)C1c1ccccc1[N+](=O)[O-] [nifedipine, reference compound]

>  <assayed system>
spontaneously hypertensive rats

>  <metric name>
change in vivo at 30 mg/kg

>  <result number>
35.4

$$$$
>  <compound>
COC(=O)C1=C(C)NC(C)=C(C(=O)OCC2COC3(CCCCC3)O2)C1c1cccc([N+](=O)[O-])c1 (stereo not drawn) [Example 2]

>  <assayed system>
spontaneously hypertensive rats

>  <metric name>
change in vivo at 30 mg/kg

>  <result number>
24.5

$$$$
>  <compound>
COC(=O)C1=C(C)NC(C)=C(C(=O)OCC2COC(c3ccccc3)(c3ccccc3)O2)C1c1cccc([N+](=O)[O-])c1 (racemic) [Example 8]

>  <assayed system>
spontaneously hypertensive rats

>  <metric name>
change in vivo at 30 mg/kg

>  <result number>
12.4

$$$$
>  <compound>
COC(=O)C1=C(C)NC(C)=C(C(=O)OCC2CSC(C)(C)O2)C1c1cccc([N+](=O)[O-])c1 (racemic) [Example 6]

>  <assayed system>
spontaneously hypertensive rats

>  <metric name>
change in vivo at 30 mg/kg

>  <result number>
21.4

$$$$
>  <compound>
COC(=O)C1=C(C)NC(C)=C(C(=O)OCC2COC(C)(C)O2)C1c1cccc([N+](=O)[O-])c1 (stereo not drawn) [Example 1]

>  <assayed system>
spontaneously hypertensive rats

>  <metric name>
change in vivo at 30 mg/kg

>  <result number>
16.4

$$$$
>  <compound>
COC(=O)C1=C(C)NC(C)=C(C(=O)OCC2COC(c3ccccc3)O2)C1c1cccc([N+](=O)[O-])c1 (stereo not drawn) [Example 14]

>  <assayed system>
spontaneously hypertensive rats

>  <metric name>
change in vivo at 30 mg/kg

>  <result number>
19.9

$$$$
>  <compound>
COC(=O)C1=C(C)NC(C)=C(C(=O)OCCN(C)Cc2ccccc2)C1c1cccc([N+](=O)[O-])c1 (stereo not drawn) [nicardipine, reference compound]

>  <assayed system>
spontaneously hypertensive rats

>  <metric name>
change in vivo at 30 mg/kg

>  <result number>
21.3

$$$$
